- Test Description: Miniaturized non-sink dissolution in FaSSIF pH 6.5
- Type: physicochemical
- Applied Conditions: FaSSIF pH 6.5, 37° C., after 120 min
Property Label: Dissolution level in FaSSIF

COc1ccc2nc3cc(Cl)ccc3c(Nc3cc(CN4CCCC4)c(O)c(CN4CCCC4)c3)c2n1 [Form V] | approx. 0.82 mg/mL
COc1ccc2nc3cc(Cl)ccc3c(Nc3cc(CN4CCCC4)c(O)c(CN4CCCC4)c3)c2n1 [Form IV] | approx. 0.82 mg/mL

---

- Test Description: Miniaturized non-sink dissolution in FaSSIF pH 6.5
- Assay type: physicochemical
- Applied Conditions: FaSSIF pH 6.5, 37° C., after 60 min
Property Label: Dissolution level in FaSSIF

COc1ccc2nc3cc(Cl)ccc3c(Nc3cc(CN4CCCC4)c(O)c(CN4CCCC4)c3)c2n1 [Form V] | approx. 0.56 mg/mL
COc1ccc2nc3cc(Cl)ccc3c(Nc3cc(CN4CCCC4)c(O)c(CN4CCCC4)c3)c2n1 [Form IV] | approx. 0.56 mg/mL

---

- Test Description: Miniaturized non-sink dissolution in FaSSIF pH 6.5
- Type: physicochemical
- Applied Conditions: FaSSIF pH 6.5, 37° C., after 15 min
Property Label: Dissolution level in FaSSIF

COc1ccc2nc3cc(Cl)ccc3c(Nc3cc(CN4CCCC4)c(O)c(CN4CCCC4)c3)c2n1 [Form IV] | approx. 0.17 mg/mL
COc1ccc2nc3cc(Cl)ccc3c(Nc3cc(CN4CCCC4)c(O)c(CN4CCCC4)c3)c2n1 [Form V] | approx. 0.17 mg/mL

---

- Test Description: Water Vapour Sorption isotherm (DVS), hygroscopicity acc. to Ph. Eur.
- Assay type: physicochemical
- Applied Conditions: based on water uptake difference 40-80% rh
Property Label: Hygroscopicity classification acc. to Ph. Eur. criteria (section 5.11.)

Recorded Hygroscopicity classification acc. to Ph. Eur. criteria (section 5.11.), per entry:
COc1ccc2nc3cc(Cl)ccc3c(Nc3cc(CN4CCCC4)c(O)c(CN4CCCC4)c3)c2n1 [Tetraphosphate form, reference compound] | hygroscopic
COc1ccc2nc3cc(Cl)ccc3c(Nc3cc(CN4CCCC4)c(O)c(CN4CCCC4)c3)c2n1 [Form IV] | slightly hygroscopic
COc1ccc2nc3cc(Cl)ccc3c(Nc3cc(CN4CCCC4)c(O)c(CN4CCCC4)c3)c2n1 [Form II] | slightly hygroscopic
COc1ccc2nc3cc(Cl)ccc3c(Nc3cc(CN4CCCC4)c(O)c(CN4CCCC4)c3)c2n1 [Form I] | hygroscopic

What the record says about COc1ccc2nc3cc(Cl)ccc3c(Nc3cc(CN4CCCC4)c(O)c(CN4CCCC4)c3)c2n1 [Form III] : Hygroscopicity classification acc. to Ph. Eur. criteria (section 5.11.) is slightly hygroscopic

---

- Test Description: Water Vapour Sorption isotherm (DVS), hygroscopicity acc. to Ph. Eur.
- Assay type: physicochemical
- Applied Conditions: relative humidity range 40-80% rh, isotherm 25° C.
Property Label: Water uptake level (Water Vapour Sorption)

get_value(item= COc1ccc2nc3cc(Cl)ccc3c(Nc3cc(CN4CCCC4)c(O)c(CN4CCCC4)c3)c2n1 [Form VII] , readout=Water uptake level (Water Vapour Sorption)) returns < 0.1 wt%

The compound identified as COc1ccc2nc3cc(Cl)ccc3c(Nc3cc(CN4CCCC4)c(O)c(CN4CCCC4)c3)c2n1 [Form VI] registered its Water uptake level (Water Vapour Sorption) at < 0.1 wt%

Value of Water uptake level (Water Vapour Sorption) reported for the compound COc1ccc2nc3cc(Cl)ccc3c(Nc3cc(CN4CCCC4)c(O)c(CN4CCCC4)c3)c2n1 [Tetraphosphate form, reference compound] is > 4.9 wt%
